Test system: UCD52 (cells of a triple-negative basal-like breast cancer xenograft)
Assay: cell viability (% of vehicle); higher = less cytotoxic;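 note: PDX cells carrying CMV promoter-driven luciferase, viability read as total photon flux per second by IVIS imaging following D-luciferin, vehicle control 0.1% DMSO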
Conditions: 10 µM; 72 h
endpoint name: cell viability
Give your answer as a number; write no unit.

With UCD52 as the test system, CC(=Cc1csc(C)n1)C1CC2OC2(C)CCCC(C)C(O)C(C)C(=O)C(C)(C)C(O)CC(=O)O1 (centres undefined) [Epothilone B (EPO906, Patupilone)] showed cell viability of 78.2

With UCD52 as the test system, O=c1[nH]c2ccccc2n1CCCN1CCC(n2c(=O)[nH]c3cc(Cl)ccc32)CC1 [Domperidone] showed cell viability of 128

With UCD52 as the test system, C#CC1(O)C=CC2C3CCC4=CC(=O)CCC4C3CCC21CC (centres undefined) [Gestodene] showed cell viability of 143

With UCD52 as the test system, Cc1cc(C(C#N)c2ccc(Cl)cc2)c(Cl)cc1NC(=O)c1cc(I)cc(I)c1[O-].[Na+] (centres undefined) [Closantel Sodium] showed cell viability of 68.1

With UCD52 as the test system, Cc1cccc(C)c1NC(=O)CN1CCCC1=O [Nefiracetam] showed cell viability of 74.9

With UCD52 as the test system, COc1ccc(C(CN(C)C)C2(O)CCCCC2)cc1.Cl (centres undefined) [Venlafaxine] showed cell viability of 119

With UCD52 as the test system, CCN(C)C(=O)Oc1cccc(C(C)N(C)C)c1 (centres undefined) [Rivastigmine] showed cell viability of 101

With UCD52 as the test system, c1ccc2c(c1)sc1ccccc12 [Dibenzothiophene] showed cell viability of 115

With UCD52 as the test system, O=C(O)CCCc1ccc(N(CCCl)CCCl)cc1 [Chlorambucil] showed cell viability of 108

With UCD52 as the test system, CCCCCCCCCCCCCCCC[n+]1ccccc1.[Cl-] [Cetylpyridinium Chloride] showed cell viability of 24.2

With UCD52 as the test system, C=CCC1(O)CCC2C3CCC4=CC(=O)CCC4=C3C=CC21C (centres undefined) [Altrenogest] showed cell viability of 83.1

With UCD52 as the test system, CCCCCCCCCCCC[N+](C)(C)CCOc1ccccc1.[Br-] [Domiphen Bromide] showed cell viability of 27.6

With UCD52 as the test system, CC(C)NCC(O)c1ccccc1Cl.Cl (centres undefined) [Clorprenaline HCL] showed cell viability of 90.6

With UCD52 as the test system, CC(=O)Nc1cc([As](=O)(O)O)ccc1O [Arsonic acid] showed cell viability of 112

###

Test system: HCI13 (cells of an ER-positive luminal breast cancer xenograft)
Experiment: cell viability (% of vehicle); higher = less cytotoxic
Conditions: 10 µM; 72 h
Mark Condition met only when cell viability stays strictly below 90. Values equal to the cut-off are Condition not met.

Ask: I wonder whether CCCCCCCCCCCCCCCC[N+](C)(C)C.[Br-] [Cetrimonium Bromide (CTAB)] has cell viability below 90. Can you tell?
Result: Condition met

Ask: I wonder whether C=C1CC2C(CCC3(C)C(=O)CCC23)C2(C)C=CC(=O)C=C12 (stereo not given) [Exemestane] has cell viability below 90. Can you tell?
Result: Condition not met

Ask: I wonder whether CC1CNCCc2ccc(Cl)cc21.Cl (stereo not given) [Lorcaserin HCl] has cell viability below 90. Can you tell?
Result: Condition not met

Ask: I wonder whether CN(C)C(=O)Oc1ccc[n+](C)c1.[Br-] [Pyridostigmine Bromide] has cell viability below 90. Can you tell?
Result: Condition not met

Ask: I wonder whether CCN(C)C(=O)Oc1cccc(C(C)N(C)C)c1.O=C(O)C(O)C(O)C(=O)O (stereo not given) [Rivastigmine Tartrate] has cell viability below 90. Can you tell?
Result: Condition not met
